method.summary: physchem
cond: 1-octanol/phosphate buffer, pH 7.4
recorded.metric: logD
Numbers only.

> print(dat)
                                   compound  recorded.metric  val
1  CC(C)COc1ccc(CNC(=O)N(Cc2ccc(F)cc2)C2CCN(C)CC2)cc1 [PIMAVANSERIN]             logD  2.8

# return logD for each item in the list
1. CC(C)COc1ccc(CNC(=O)N(Cc2ccc(F)cc2)[C@H]2CCN(C)C[C@H]2F)cc1
2. CCCOc1ccc(CNC(=O)N(Cc2ccn(C)n2)C2CCN(C)CC2)cc1

-- reply
4
1.2

###

method.summary: Dissociation constant, pKa of the compound in DMSO solution by capillary electrophoresis
Type: physicochemical
recorded.metric: pKa
One number for each entry.

> print(dat)
                           structure.smiles  val
1  CC(C)COc1ccc(CNC(=O)N(Cc2ccc(F)cc2)[C@H]2CCN(C)C[C@@H]2F)cc1  6.2
2  CC(C)COc1ccc(CNC(=O)N(Cc2ccc(F)cc2)C2CCN(C)CC2)cc1  8.4
3  CC(C)COc1ccc(CNC(=O)N(Cc2ccc(F)cc2)[C@H]2CCN(C)C[C@H]2F)cc1  7.2

-- ask Item under review: CC(C)COc1ccc(CNC(=O)N(Cc2ccc(F)cc2)[C@H]2CCN(C)CC23CC3)cc1 . Reported pKa?
-- reply 8.7

###

method.summary: in vitro
cond: human, liver microsomes
Description: Metabolic stability in human liver microsomes assessed as compound remaining measured after 30 mins
recorded.metric: remaining at 0.5 h (%)
Answers are plain numbers, in %.

> print(dat)
                           structure.smiles     recorded.metric  readout.units  val
1  CC(C)COc1ccc(CNC(=O)N(Cc2ccc(F)cc2)[C@H]2CCN(C)C[C@H]2F)cc1  remaining at 0.5 h              %   34
2  CC(C)COc1ccc(CNC(=O)N(Cc2ccc(F)cn2)[C@H]2CCN(C)CC23CC3)cc1  remaining at 0.5 h              %   68
3  CCCOc1ccc(CNC(=O)N(Cc2ccn(C)n2)C2CCN(C)CC2)cc1  remaining at 0.5 h              %  102
4  CC(C)COc1ccc(CNC(=O)N(Cc2ccc(F)cc2)[C@H]2CCN(C)C[C@@H]2F)cc1  remaining at 0.5 h              %  7.9
5  CC(C)COc1ccc(CNC(=O)N(Cc2ccn(C)n2)[C@H]2CCN(C)CC23CC3)cc1  remaining at 0.5 h              %   88

# return remaining at 0.5 h for each item in the list
1. CC(C)COc1ccc(CNC(=O)N(Cc2ccc(F)cc2)[C@H]2CCN(C)CC23CC3)cc1
2. CC(C)COc1ccc(CNC(=O)N(Cc2ccc(F)cc2)C2CCN(C)CC2)cc1

-- reply
[48, 89]

###

method.summary: in vitro
cond: rat, liver microsomes
Description: Metabolic stability in rat liver microsomes assessed as compound remaining measured after 30 mins
Would you mind telling me the reported remaining at 0.5 h of each entry?
Numbers only, in %.

Known results for compounds:
> print(dat)
                                   compound     recorded.metric  val
1  CC(C)COc1ccc(CNC(=O)N(Cc2ccc(F)cc2)[C@H]2CCN(C)C[C@@H]2F)cc1  remaining at 0.5 h  6.1
2  CC(C)COc1ccc(CNC(=O)N(Cc2ccn(C)n2)[C@H]2CCN(C)CC23CC3)cc1  remaining at 0.5 h   47
3  CC(C)COc1ccc(CNC(=O)N(Cc2ccc(F)cn2)[C@H]2CCN(C)CC23CC3)cc1  remaining at 0.5 h   64
4  CCCOc1ccc(CNC(=O)N(Cc2ccn(C)n2)C2CCN(C)CC2)cc1  remaining at 0.5 h   92
5  CC(C)COc1ccc(CNC(=O)N(Cc2ccc(F)cc2)[C@H]2CCN(C)C[C@H]2F)cc1  remaining at 0.5 h   27
6  CC(C)COc1ccc(CNC(=O)N(Cc2ccc(F)cc2)C2CCN(C)CC2)cc1 [PIMAVANSERIN]  remaining at 0.5 h   90

Okay, next one:
-- ask Item under review: CC(C)COc1ccc(CNC(=O)N(Cc2ccc(F)cc2)[C@H]2CCN(C)CC23CC3)cc1 . Reported remaining at 0.5 h?
-- reply 48

###

Would you mind telling me the reported logD of each entry?
method.summary: physchem
cond: 1-octanol/phosphate buffer, pH 7.4
Numbers only.

Known results for molecules:
> print(dat)
                           structure.smiles  val
1  CC(C)COc1ccc(CNC(=O)N(Cc2ccc(F)cn2)[C@H]2CCN(C)CC23CC3)cc1  2.5
2  CC(C)COc1ccc(CNC(=O)N(Cc2ccc(F)cc2)[C@H]2CCN(C)C[C@@H]2F)cc1  4.9
3  CC(C)COc1ccc(CNC(=O)N(Cc2ccc(F)cc2)[C@H]2CCN(C)CC23CC3)cc1    3

-- ask Item under review: CC(C)COc1ccc(CNC(=O)N(Cc2ccn(C)n2)[C@H]2CCN(C)CC23CC3)cc1 . Reported logD?
-- reply 1.7
